Assay: Clearance in C57BL/6 mouse at 15 mg/kg, iv after 8 hrs by LC-MS/MS analysis
Type: ADME, organism-based
Settings: in vivo
ENDPOINT NAME: clearance (mL/min/kg)
Numeric answer only, unit mL/min/kg assumed.

For record "COc1cc2c(cc(C#N)n2Cc2cn[nH]c2)c(C)c1CN1CCC(Nc2ncnc3sc(CC(F)(F)F)cc23)CC1" the listed clearance is 15

----------
Molecular target: Menin/Histone-lysine N-methyltransferase MLL (Homo sapiens, UniProt O00255)
Sequence (O00255 whole entry): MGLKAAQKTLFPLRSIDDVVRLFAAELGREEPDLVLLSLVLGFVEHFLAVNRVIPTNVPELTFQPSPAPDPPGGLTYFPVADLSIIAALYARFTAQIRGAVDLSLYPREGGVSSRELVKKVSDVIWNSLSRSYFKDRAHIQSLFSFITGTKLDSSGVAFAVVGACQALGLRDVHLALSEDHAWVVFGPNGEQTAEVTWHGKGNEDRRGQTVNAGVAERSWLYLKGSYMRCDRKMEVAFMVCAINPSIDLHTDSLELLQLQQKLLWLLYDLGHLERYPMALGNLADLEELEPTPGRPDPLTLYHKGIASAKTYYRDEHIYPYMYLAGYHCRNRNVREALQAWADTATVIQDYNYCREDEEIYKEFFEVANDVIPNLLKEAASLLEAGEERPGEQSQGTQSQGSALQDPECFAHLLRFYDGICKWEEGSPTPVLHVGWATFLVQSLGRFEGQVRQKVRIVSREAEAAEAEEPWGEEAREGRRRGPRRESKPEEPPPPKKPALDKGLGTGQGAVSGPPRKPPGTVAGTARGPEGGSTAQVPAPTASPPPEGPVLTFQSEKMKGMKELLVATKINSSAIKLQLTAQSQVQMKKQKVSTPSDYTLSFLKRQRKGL
Sequence (Q03164 1-2718 partner limits assumed): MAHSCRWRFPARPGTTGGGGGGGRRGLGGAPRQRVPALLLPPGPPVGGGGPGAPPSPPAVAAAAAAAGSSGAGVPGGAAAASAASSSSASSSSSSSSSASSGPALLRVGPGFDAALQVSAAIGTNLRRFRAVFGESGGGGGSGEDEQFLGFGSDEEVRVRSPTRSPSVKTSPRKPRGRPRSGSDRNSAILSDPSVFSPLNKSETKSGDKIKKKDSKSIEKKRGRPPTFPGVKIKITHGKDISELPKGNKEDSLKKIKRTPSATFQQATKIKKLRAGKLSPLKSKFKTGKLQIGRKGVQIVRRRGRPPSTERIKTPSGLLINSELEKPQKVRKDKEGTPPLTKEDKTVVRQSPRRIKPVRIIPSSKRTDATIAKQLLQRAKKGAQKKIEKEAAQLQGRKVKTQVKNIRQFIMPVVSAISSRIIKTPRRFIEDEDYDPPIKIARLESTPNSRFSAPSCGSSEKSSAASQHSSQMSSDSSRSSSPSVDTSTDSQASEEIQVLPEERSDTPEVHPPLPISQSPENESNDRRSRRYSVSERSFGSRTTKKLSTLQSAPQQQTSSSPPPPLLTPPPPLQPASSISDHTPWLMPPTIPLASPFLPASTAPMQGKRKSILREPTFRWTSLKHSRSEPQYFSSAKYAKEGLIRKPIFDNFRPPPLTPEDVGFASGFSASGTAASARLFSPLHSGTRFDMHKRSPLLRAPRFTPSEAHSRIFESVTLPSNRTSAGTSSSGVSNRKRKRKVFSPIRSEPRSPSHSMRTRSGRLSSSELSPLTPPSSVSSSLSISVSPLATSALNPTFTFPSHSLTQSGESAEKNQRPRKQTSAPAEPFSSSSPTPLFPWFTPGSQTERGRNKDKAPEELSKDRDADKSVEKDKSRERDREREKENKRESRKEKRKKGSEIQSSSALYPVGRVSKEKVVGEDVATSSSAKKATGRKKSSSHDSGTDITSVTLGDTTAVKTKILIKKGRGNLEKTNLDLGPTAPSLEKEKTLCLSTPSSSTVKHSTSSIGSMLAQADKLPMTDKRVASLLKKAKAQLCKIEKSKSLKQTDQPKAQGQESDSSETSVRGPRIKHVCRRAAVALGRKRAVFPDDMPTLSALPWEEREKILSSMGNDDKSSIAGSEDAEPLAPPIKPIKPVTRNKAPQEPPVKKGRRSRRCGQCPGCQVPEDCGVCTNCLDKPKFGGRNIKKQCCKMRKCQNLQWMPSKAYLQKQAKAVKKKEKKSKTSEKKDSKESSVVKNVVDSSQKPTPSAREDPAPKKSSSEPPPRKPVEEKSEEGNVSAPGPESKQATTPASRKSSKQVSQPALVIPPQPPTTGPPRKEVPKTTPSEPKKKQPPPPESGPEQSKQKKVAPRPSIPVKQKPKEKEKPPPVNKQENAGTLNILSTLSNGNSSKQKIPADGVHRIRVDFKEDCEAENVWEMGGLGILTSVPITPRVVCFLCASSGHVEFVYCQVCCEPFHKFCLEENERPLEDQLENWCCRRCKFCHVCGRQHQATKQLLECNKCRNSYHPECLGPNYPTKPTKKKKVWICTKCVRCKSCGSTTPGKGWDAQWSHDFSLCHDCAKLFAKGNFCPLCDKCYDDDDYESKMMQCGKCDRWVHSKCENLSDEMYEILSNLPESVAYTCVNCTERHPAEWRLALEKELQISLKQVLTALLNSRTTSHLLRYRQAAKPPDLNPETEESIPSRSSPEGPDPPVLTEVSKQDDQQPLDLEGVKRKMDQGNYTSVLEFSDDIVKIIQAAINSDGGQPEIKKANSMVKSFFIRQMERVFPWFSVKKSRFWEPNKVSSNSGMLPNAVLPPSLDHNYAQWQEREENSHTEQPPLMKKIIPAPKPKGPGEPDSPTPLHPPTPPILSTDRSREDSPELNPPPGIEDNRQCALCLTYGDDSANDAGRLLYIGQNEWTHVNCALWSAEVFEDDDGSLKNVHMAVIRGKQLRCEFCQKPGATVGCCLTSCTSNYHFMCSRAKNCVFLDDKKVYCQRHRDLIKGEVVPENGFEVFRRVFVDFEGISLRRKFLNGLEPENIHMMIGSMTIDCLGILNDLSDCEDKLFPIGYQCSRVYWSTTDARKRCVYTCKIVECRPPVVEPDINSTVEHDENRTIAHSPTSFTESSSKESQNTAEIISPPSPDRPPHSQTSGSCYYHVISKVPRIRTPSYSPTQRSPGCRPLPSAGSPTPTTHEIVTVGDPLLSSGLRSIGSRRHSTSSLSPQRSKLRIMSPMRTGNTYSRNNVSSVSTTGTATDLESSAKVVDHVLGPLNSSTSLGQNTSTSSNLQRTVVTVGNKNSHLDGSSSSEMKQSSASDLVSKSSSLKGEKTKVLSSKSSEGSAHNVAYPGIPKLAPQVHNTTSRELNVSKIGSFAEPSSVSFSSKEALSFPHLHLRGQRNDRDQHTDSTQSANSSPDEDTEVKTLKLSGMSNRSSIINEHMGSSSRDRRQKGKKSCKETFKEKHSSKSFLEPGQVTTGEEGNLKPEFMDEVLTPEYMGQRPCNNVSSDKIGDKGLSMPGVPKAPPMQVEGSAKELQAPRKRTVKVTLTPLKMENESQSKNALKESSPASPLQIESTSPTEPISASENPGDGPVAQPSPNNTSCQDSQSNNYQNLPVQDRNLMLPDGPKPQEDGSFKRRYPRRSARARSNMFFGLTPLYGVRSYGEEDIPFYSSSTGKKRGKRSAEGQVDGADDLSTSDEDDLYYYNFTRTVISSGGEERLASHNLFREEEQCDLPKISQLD
Sequence (Q03164 2719-3969 partner limits assumed): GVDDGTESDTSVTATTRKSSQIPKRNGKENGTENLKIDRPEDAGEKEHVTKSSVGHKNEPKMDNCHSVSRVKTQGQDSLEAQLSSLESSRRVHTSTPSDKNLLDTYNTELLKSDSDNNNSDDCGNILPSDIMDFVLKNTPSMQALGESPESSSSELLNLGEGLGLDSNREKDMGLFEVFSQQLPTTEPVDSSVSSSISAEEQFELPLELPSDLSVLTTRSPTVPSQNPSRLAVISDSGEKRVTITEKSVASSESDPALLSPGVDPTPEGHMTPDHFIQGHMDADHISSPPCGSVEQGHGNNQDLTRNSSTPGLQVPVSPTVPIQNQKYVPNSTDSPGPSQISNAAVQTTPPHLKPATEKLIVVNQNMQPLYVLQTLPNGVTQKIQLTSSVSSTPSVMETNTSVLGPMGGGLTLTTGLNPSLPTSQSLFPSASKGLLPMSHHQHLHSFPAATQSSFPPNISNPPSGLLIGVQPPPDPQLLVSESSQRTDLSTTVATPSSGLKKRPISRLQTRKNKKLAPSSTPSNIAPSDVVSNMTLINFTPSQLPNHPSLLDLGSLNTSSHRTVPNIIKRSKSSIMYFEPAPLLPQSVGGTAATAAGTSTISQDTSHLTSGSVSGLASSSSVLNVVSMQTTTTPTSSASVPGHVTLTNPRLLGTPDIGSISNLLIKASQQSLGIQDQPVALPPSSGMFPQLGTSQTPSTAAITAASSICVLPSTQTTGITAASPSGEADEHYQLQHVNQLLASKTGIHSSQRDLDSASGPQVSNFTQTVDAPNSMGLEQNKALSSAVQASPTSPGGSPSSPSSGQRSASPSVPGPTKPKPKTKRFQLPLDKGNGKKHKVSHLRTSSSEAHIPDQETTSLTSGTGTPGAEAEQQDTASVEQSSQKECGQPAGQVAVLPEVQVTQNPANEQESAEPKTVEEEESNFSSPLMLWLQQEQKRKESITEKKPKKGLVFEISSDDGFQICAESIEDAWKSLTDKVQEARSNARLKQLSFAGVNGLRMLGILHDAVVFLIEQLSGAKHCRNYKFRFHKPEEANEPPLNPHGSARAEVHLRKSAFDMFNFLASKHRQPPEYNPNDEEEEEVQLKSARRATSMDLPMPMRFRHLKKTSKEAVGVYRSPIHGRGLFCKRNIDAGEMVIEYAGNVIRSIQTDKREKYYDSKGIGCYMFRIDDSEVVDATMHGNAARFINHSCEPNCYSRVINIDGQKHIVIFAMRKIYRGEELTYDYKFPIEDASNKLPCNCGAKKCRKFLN
Assay: Inhibition of menin-MLL interaction (unknown origin) after 1 hr by fluorescence polarization assay
Item-by-item account of IC50
Respond numerically; units are nM and should not be typed.

>  <COMPOUND>
N#Cc1cc2cc(CN3CCC(Nc4ncnc5sc(CC(F)(F)F)cc45)CC3)c(F)cc2[nH]1

>  <UNITS OF MEASURE>
nM

>  <IC50>
109

$$$$
>  <COMPOUND>
CCOc1cc2[nH]c(C#N)cc2cc1CN1CCC(Nc2ncnc3sc(CC(F)(F)F)cc23)CC1

>  <UNITS OF MEASURE>
nM

>  <IC50>
47

$$$$

Reported IC50 of "Cc1c(CN2CCC(Nc3ncnc4sc(CC(F)(F)F)cc34)CC2)c(O)cc2c1cc(C#N)n2Cc1cn[nH]c1" : 18

GET /value?item= "Cc1c(CN2CCC(Nc3ncnc4sc(CC(F)(F)F)cc34)CC2)c(O)cc2c1cc(C#N)n2CCO" &field=IC50 returns 27

Reported IC50 of "N#Cc1cc2cc(CN3CCC(Nc4ncnc5sc(CC(F)(F)F)cc45)CC3)c(O)cc2[nH]1" : 20

Given item CC(C)OC(CO)Cn1c(C#N)cc2cc(CN3CCC(Nc4ncnc5sc(CC(F)(F)F)cc45)CC3)ccc21 (configuration not stated) , the value recorded as its IC50 is 23

The value of IC50 measured for the compound "COc1cc2c(cc(C#N)n2CCO)c(C)c1CN1CCC(Nc2ncnc3sc(CC(F)(F)F)cc23)CC1" turned out to be 16

"Cc1c(CN2CCC(Nc3ncnc4sc(CC(F)(F)F)cc34)CC2)ccc2c1cc(C#N)n2CCO" yielded IC50 of 44

Looking up "N#Cc1cc2cc(CN3CCC(Nc4ncnc5sc(CC(F)(F)F)cc45)CC3)ccc2n1CCO" , I found its IC50 recorded as 35

Lab note: N#Cc1cc2cc(CN3CCC(Nc4ncnc5sc(CC(F)(F)F)cc45)CC3)ccc2n1CC(O)CO (racemic) gave IC50 of 37

GET /value?item= "COc1cc2c(cc(C#N)n2Cc2cn[nH]c2)c(C)c1CN1CCC(Nc2ncnc3sc(CC(F)(F)F)cc23)CC1" &field=IC50 returns 12

The value of IC50 measured for the compound "COc1cc2c(cc1CN1CCC(Nc3ncnc4sc(CC(F)(F)F)cc34)CC1)cc(C#N)n2Cc1cn[nH]c1" turned out to be 24

Given item "Cc1c(CN2CCC(Nc3ncnc4sc(CC(F)(F)F)cc34)CC2)ccc2c1cc(C#N)n2Cc1c[nH]nn1" , the value recorded as its IC50 is 23

Entry "N#Cc1cc2cc(CN3CCC(Nc4ncnc5sc(CC(F)(F)F)cc45)CC3)ccc2n1CC(N)=O" , IC50 reported as 25

Value of IC50 reported for the compound COCC(O)Cn1c(C#N)cc2cc(CN3CCC(Nc4ncnc5sc(CC(F)(F)F)cc45)CC3)ccc21 (configuration not stated) is 101

IC50 reported for this compound "CO[C@@H](CO)Cn1c(C#N)cc2cc(CN3CCC(Nc4ncnc5sc(CC(F)(F)F)cc45)CC3)ccc21" : 40

Reported IC50 for "Cc1c(CN2CCC(Nc3ncnc4sc(CC(F)(F)F)cc34)CC2)ccc2c1cc(C#N)n2CC(N)=O" was 27
